Listed compounds paired with reported Solubility
# run-description: Solubility in water was determined
# Format: physicochemical
# condition-info: buffer
reported-endpoint: Solubility (M l-1)

1. Cc1cc2occ(C)c2c2oc(=O)ccc12: 0.000022
2. Cc1coc2ccc3ccc(=O)oc3c12: 0.00007
3. Cc1cc(=O)oc2c1ccc1occ(C)c12: 0.000012
4. O=c1ccc2ccc3occc3c2o1 [ANGELICIN]: 0.000105

====

Each record here notes measured Solubility.
# run-description: Solubility in water was determined
# Format: physicochemical
# condition-info: water; read-out: Solubility
reported-endpoint: Solubility (µg/mL)

1) Cc1coc2ccc3ccc(=O)oc3c12: 14
2) Cc1cc(=O)oc2c1ccc1occ(C)c12: 2.6
3) Cc1cc2occ(C)c2c2oc(=O)ccc12: 4.7
